target of assay: HLA A0202 (human)
assay explanation: 125I-probe competition, purified HLA
// reported IC50 per item

These solved cases illustrate the format of a correct answer.
binder: KLLSKLLCV (modifications not checked) [HPV16.E1.292]
IC50: 67.7 nM
--
binder: FLLCFCVLL (modifications not checked) [HPV31.E5.15]
IC50: 13 nM
--
binder: TLYAHIQCL (modifications not checked) [HPV45.E1.252]
IC50: 4.9 nM

Switching to the query record.
Challenge: Bench note: what IC50 did CLYLHIQSL (modifications not checked) [HPV16.E1.259] show?
Response given: 45 nM
